test: Novel Modifiers of Survival Motor Neuron (SMN) Protein: Gene Identification via Genome-wide siRNA Screen; conditions: HEK293T SMN2-luciferase reporter, siRNA knockdown, 72 h; actives lie on both sides;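 also: luminescence tracks full-length SMN protein made from the SMN2 reporter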
About 1,400 (4.5%) of roughly 31,000 sequences were called active.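 The calls were made as follows: active = median seed-adjusted z-score above 1 or below -1; inactive = the rest.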 This excerpt belongs to a sample that is enriched for actives.
Log the outcome using a class from active, inactive

Some entries whose results are on file:
# residue sequence, assigned label
measured = [
    ("GAAUGUCCCUGCUCCACAATT against SNAI1", "inactive"),
    ("CUGCAGUUCUUAAUACGAATT against PSMD1", "active"),
    ("CCAGUGUACUCAGUCUAUUTT against STAM2", "inactive"),
    ("CCAUGAUACUCCACUCCCATT against GUCA2A", "inactive"),
]

Please indicate how the test categorized GGAAUACCAUGAGCUGUUATT against OSBP .
inactive

Fill in: this test's call for GGAGGGACAAGAUCAACAATT against USF2 is ___
inactive

Hey, what did the test say about GAUAUUCUCUGUGACGUGATT against BACH2 ?
inactive

Which result was noted for this sequence in the test: GCAGAAUUCUCCUACCAAATT against ENTPD3
inactive

What outcome does the record of this test show for GCUUGAGUAUAGAUAAAGATT against PAM ?
inactive

Status in this test for CUCUCUCUCGGAAUCUGAATT against POLR2L ?
active

Per the records of this test, what outcome belongs to GAAGCAGAGGACAACAUGATT against SNRPD3 ?
active

Hey, what did the test say about GGAAUUUUUCGGGUGGUUATT against ELF5 ?
inactive

----------
assay: Novel Modifiers of Survival Motor Neuron (SMN) Protein: Gene Identification via Genome-wide siRNA Screen; settings: HEK293T SMN2-luciferase reporter, siRNA knockdown, 72 h; actives lie on both sides;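 also: luminescence tracks full-length SMN protein made from the SMN2 reporter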
Screen size: about 31,000 sequences; about 1,400 (4.5%) were called active.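 The calls were made as follows: active = median seed-adjusted z-score above 1 or below -1; inactive = the rest.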 The entries come from a sample that favours actives as a whole.
Answer with one of the outcomes given here: 1 (yes) for active, 0 (no) for inactive

# residue sequence, assigned label
records = [
    ("GAUCCUGAGUUAGAGAAGATT against METTL3", "0 (no)"),
    ("CAAGAUUCUUGACCUUGAATT against PDP2", "0 (no)"),
    ("CUACUUUCGAGACUACUUUTT against DGAT2", "0 (no)"),
]

Test call for this sequence, please: CCAUUUGACUUUAUGGAGATT against RRM2
1 (yes)

Short answer needed: outcome of this test for ACGCAGAUUUCUACAGAAATT against COX6C ?
0 (no)

Name the outcome recorded for CAAGGUAGCUCAGCACUGATT against PEX6 in the assay.
0 (no)

I'd appreciate the recorded outcome for CACUAGAAAUAACAAUGGATT against TMPRSS11D from this test.
0 (no)

Would you mind telling me which call this test gave CGAGGACACUCAAACGGAUTT against TAF7L ?
0 (no)

Just curious, what result did GGACGUACAGUGGUGGUAATT against ABCA3 get here?
0 (no)

Test call, this sequence: GAUGAUCUGUGAGACCAAATT against BOC
0 (no)

Recorded test call requested for GGUUCUGACAGACAAUGGATT against DPT
0 (no)

Please indicate how the test categorized GAGUGUAACUGCAACCAGATT against NTNG2 .
0 (no)
